Source listed as patent US20200247894A1.

Form field: pKd (one value per entry).
Molecular target: T1, Human IL2Rγ extracellular domain expressed with a C-terminal myc-myc-hexahistidine tag (human)
T1 construct: also called hIL-2Rg-MMH; hIL-2RG-MMH
T1 chain: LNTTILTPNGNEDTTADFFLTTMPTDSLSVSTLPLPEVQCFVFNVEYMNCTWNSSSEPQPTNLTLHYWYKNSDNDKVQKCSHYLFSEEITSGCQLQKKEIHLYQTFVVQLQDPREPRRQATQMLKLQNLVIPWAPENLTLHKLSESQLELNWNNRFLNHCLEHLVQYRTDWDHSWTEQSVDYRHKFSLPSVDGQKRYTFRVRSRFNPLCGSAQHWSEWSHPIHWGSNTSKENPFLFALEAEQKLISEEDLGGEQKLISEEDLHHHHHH
Test: SPR Biacore 4000, mAb captured by anti-hFc, HBS-ET, 37C
Remember, pKd is on a log scale: it is -log10 of the molar concentration.

H4H12890P (antibody, human IgG4 S228P, kappa, V domains shown, anti-IL2Rγ monoclonal antibody expressed with human IgG4 Fc) VH: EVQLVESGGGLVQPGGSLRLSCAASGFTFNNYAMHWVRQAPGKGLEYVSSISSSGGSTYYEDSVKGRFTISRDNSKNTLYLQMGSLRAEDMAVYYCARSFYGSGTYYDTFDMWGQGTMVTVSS VL: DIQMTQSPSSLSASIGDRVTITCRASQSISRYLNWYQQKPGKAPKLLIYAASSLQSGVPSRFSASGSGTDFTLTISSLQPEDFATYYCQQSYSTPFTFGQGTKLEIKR : 7.85
H4H12899P (antibody, human IgG4 S228P, kappa, V domains shown, anti-IL2Rγ monoclonal antibody expressed with human IgG4 Fc) VH: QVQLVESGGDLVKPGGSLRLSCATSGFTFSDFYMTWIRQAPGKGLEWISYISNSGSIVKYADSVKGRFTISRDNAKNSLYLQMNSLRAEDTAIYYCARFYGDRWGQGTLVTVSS VL: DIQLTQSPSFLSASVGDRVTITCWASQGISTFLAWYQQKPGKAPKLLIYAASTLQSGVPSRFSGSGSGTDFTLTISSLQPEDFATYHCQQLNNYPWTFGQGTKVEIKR : 8.14

Exercise: Reported pKd for H4H12874P (antibody, human IgG4 S228P, kappa, V domains shown, anti-IL2Rγ monoclonal antibody expressed with human IgG4 Fc) VH: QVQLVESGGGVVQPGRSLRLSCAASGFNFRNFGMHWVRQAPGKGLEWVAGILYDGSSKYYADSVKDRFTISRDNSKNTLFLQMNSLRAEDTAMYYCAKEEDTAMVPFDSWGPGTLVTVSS VL: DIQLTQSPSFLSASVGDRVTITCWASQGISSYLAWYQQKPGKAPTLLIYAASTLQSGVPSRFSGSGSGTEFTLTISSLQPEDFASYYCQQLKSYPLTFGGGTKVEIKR : what is it?
Solution: 7.98

Exercise: Reported pKd for H4H12871P (antibody, human IgG4 S228P, kappa, V domains shown, anti-IL2Rγ monoclonal antibody expressed with human IgG4 Fc; also called REGN9434) VH: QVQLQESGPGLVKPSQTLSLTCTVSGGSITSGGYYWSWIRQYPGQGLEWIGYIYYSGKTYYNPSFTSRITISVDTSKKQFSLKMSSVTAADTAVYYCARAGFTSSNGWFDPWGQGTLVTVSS VL: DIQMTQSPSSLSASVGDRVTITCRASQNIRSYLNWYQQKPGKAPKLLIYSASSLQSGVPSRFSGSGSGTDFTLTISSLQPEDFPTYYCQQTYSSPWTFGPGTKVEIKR : what is it?
Solution: 7.97

Exercise: Reported pKd for H4H12886P (antibody, human IgG4 S228P, kappa, V domains shown, anti-IL2Rγ monoclonal antibody expressed with human IgG4 Fc) VH: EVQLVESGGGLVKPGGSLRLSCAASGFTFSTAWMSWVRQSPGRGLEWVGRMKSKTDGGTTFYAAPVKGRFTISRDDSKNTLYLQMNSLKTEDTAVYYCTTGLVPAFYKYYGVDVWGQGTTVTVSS VL: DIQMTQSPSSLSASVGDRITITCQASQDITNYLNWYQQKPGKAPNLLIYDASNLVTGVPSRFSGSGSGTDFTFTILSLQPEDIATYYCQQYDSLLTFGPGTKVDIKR : what is it?
Solution: 7.81
